Assign Dmax to each entry below.
target: KRas (Homo sapiens, UniProt P01116, G12C); assay: KRas degradation in NCI-H2030 cells by Western blot, normalized to GAPDH (data of Table 14); format: cell-based; set-up: host or cells: NCI-H2030; conditions: NCI-H2030; H2030 cells

Guide cases for Dmax, answers given:
C=CC(=O)N1CCN(c2nc(O[C@H](C)CN3CCC(OCCOCCOCCOCCOCCOCC(=O)N[C@H](C(=O)N4C[C@H](O)C[C@H]4C(=O)N[C@@H](C)c4ccc(-c5scnc5C)cc4)C(C)(C)C)CC3)nc3c(F)c(-c4cc(O)cc5ccccc45)c(Cl)cc23)CC1 [compound 402] = ≤ 35%
CCC(=O)N1CCN(c2nc(NCCC(=O)N(C)CCOCCOCCOc3ccc4c(c3)CN(C3CCC(=O)NC3=O)C4=O)nc3c(F)c(-c4cc(O)cc5ccccc45)c(Cl)cc23)CC1 (centres unmarked) [compound 52] = ≤ 35%
CCC(=O)N1CCN(c2nc(NCCC(=O)N(C)CCOCCOCCOCCOc3ccc4c(c3)CN(C3CCC(=O)NC3=O)C4=O)nc3c(F)c(-c4cc(O)cc5ccccc45)c(Cl)cc23)CC1 (centres unmarked) [compound 53] = ≤ 35%
C=CC(=O)N1CCN(c2nc(NCCC(=O)N(C)CCOCCOCCOCCNc3cccc4c3C(=O)N(C3CCC(=O)NC3=O)C4=O)nc3c(F)c(-c4cc(O)cc5ccccc45)c(Cl)cc23)CC1 (centres unmarked) [compound 58] = ≤ 35%

Consider the additional compound presented here.
Record request: Dmax value, item CCC(=O)N1CCN(c2nc(NCCC(=O)N(C)CCOCCOCCOc3cc(-c4scnc4C)ccc3CNC(=O)[C@@H]3C[C@@H](O)CN3C(=O)[C@@H](c3cc(C)no3)C(C)C)nc3c(F)c(-c4cc(O)cc5ccccc45)c(Cl)cc23)CC1 [compound 332] ≤ 35%

----------
Assign Dmax to each entry below.
molecular target: KRas (Homo sapiens, UniProt P01116, G12C); experiment: KRas degradation in NCI-H2030 cells by Western blot, normalized to GAPDH (data of Table 14); assay type: cell-based; set-up: host or cells: NCI-H2030; details: NCI-H2030; H2030 cells

Guide cases for Dmax, answers given:
C=CC(=O)N1CCN(c2nc(NCCC(=O)N(C)CCOCCOCCOc3ccc4c(c3)CN(C3CCC(=O)NC3=O)C4=O)nc3c(F)c(-c4cc(O)cc5ccccc45)c(Cl)cc23)CC1 (stereo not drawn) = ≤ 35%
C=CC(=O)N1CCN(c2nc(NCCC(=O)N(C)CCOCCOCCOCCOCCOc3cc(-c4scnc4C)ccc3CNC(=O)[C@@H]3C[C@@H](O)CN3C(=O)[C@@H](c3cc(C)no3)C(C)C)nc3c(F)c(-c4cc(O)cc5ccccc45)c(Cl)cc23)CC1 = ≤ 35%

Consider the additional compound presented here.
Return Dmax measured with KRas (Homo sapiens, UniProt P01116, G12C) given this compound: C=CC(=O)N1CCN(c2nc(NCCC(=O)N(C)CCOCCOCCNc3cccc4c3C(=O)N(C3CCC(=O)NC3=O)C4=O)nc3c(F)c(-c4cc(O)cc5ccccc45)c(Cl)cc23)CC1 (stereo not drawn) ≤ 35%

----------
target: KRas (Homo sapiens, UniProt P01116, G12C); experiment: KRas degradation in H2030 cells by Western blot (data of Table 5); assay type: cell-based; parameters: host or cells: NCI-H2030; conditions: H2030 cells serum starved 24 hours, treated 24 hours with 0.3 uM; KRas immunoblot
quantity_name: H2030 Degradation at 0.3 uM

C=CC(=O)N1CCN(c2nc(NCCC(=O)N(C)CCOCCOCCOCCNc3cccc4c3C(=O)N(C3CCC(=O)NC3=O)C4=O)nc3c(F)c(-c4cc(O)cc5ccccc45)c(Cl)cc23)CC1 (stereo not shown) [compound 3] = C (C < 25)
C=CC(=O)N1CCN(c2nc(NCCC(=O)N(C)CCOCCOCCOCCOCC(=O)N[C@H](C(=O)N3C[C@H](O)C[C@H]3C(=O)N[C@@H](C)c3ccc(-c4scnc4C)cc3)C(C)(C)C)nc3c(F)c(-c4cc(O)cc5ccccc45)c(Cl)cc23)CC1 [compound 1] = C (C < 25)
C=CC(=O)N1CCN(c2nc(NCCC(=O)N(C)CCOCCOCCOCCOCCOCC(=O)N[C@H](C(=O)N3C[C@H](O)C[C@H]3C(=O)N[C@@H](C)c3ccc(-c4scnc4C)cc3)C(C)(C)C)nc3c(F)c(-c4cc(O)cc5ccccc45)c(Cl)cc23)CC1 [compound 2] = C (C < 25)
CCC(=O)N1CCN(c2nc(NCCC(=O)N(C)CCOCCOCCOCCOCCOCC(=O)N[C@H](C(=O)N3C[C@H](O)C[C@H]3C(=O)N[C@@H](C)c3ccc(-c4scnc4C)cc3)C(C)(C)C)nc3c(F)c(-c4cc(O)cc5ccccc45)c(Cl)cc23)CC1 [compound 7] = C (C < 25)
